As shown below, each of these compounds has a reported Ki value.
target: PAK4 Kinase domain (PAK4 KD) (Homo sapiens)
Construct: Cloning, expression, and purification of recombinant PAK4 Kinase domain (PAK4 KD); His tag (pET28a(+)/pET24a(+), Ni-NTA purification) (N, cleaved yes); GST (pGST4.5, glutathione column) (N, cleaved yes)
assay.method.text: PAK4 kinase domain enzymatic assay (PK/LDH-coupled, Ki)
recorded.conditions: PAK4 Kinase Domain

compound | target | Ki [µM]
CN(C)C[C@@H](OC(=O)N1Cc2c(NC(=O)C3CCOC3)n[nH]c2C1(C)C)c1ccccc1 (stereo partly shown) | PAK4 Kinase domain (PAK4 KD) (Homo sapiens) | 0.26
CN(C)C[C@@H](NC(=O)N1Cc2c(NC(=O)C3CCC3)n[nH]c2C1(C)C)c1ccccc1 | PAK4 Kinase domain (PAK4 KD) (Homo sapiens) | 0.21
CN(C)C[C@@H](NC(=O)N1Cc2c(NC(=O)c3cccc(Oc4ccccc4)c3)n[nH]c2C1(C)C)c1ccccc1 | PAK4 Kinase domain (PAK4 KD) (Homo sapiens) | 0.0125
CC1(C)c2[nH]nc(NC(=O)C3CCC3)c2CN1C(=O)N[C@@H]1CCN(Cc2ccccc2)C1 | PAK4 Kinase domain (PAK4 KD) (Homo sapiens) | 0.849

====

target: PAK4 Kinase domain (PAK4 KD) (Homo sapiens)
Construct: Cloning, expression, and purification of recombinant PAK4 Kinase domain (PAK4 KD); His tag (pET28a(+)/pET24a(+), Ni-NTA purification) (N, cleaved yes); GST (pGST4.5, glutathione column) (N, cleaved yes)
assay.method.text: PAK4 kinase domain enzymatic assay (PK/LDH-coupled, Ki)
recorded.conditions: PAK4 Kinase Domain
pKi: −log10 of the molar value.
If the reported pKi equals or exceeds 7, assign criterion met. If not, assign criterion not met.

test.smiles | assigned.class
CO[C@@H](C)C(=O)Nc1n[nH]c2c1CN(C(=O)O[C@H](CN(C)C)c1ccccc1)C2(C)C | criterion not met
CN(Cc1ccccc1)C[C@@H](OC(=O)N1Cc2c(NC(=O)c3ccc(F)cc3)n[nH]c2C1(C)C)c1ccccc1 | criterion not met
CN(C)C[C@@H](OC(=O)N1Cc2c(NC(=O)c3ccc(F)cc3)n[nH]c2C1(C)C)c1ccccc1 | criterion met
CC(=O)Nc1n[nH]c2c1CN(C(=O)N[C@H](CN(C)C)c1ccccc1)C2(C)C | criterion not met
CN(C)C[C@@H](NC(=O)N1Cc2c(NC(=O)c3ccccc3)n[nH]c2C1(C)C)c1ccccc1 | criterion met

====

target: PAK4 kinase activity in whole cells (TR-293-KDG, modified HEK 293) (Homo sapiens)
Construct: engineered to overexpress both GEF-H1b and the kinase domain (KD) of PAK4
Sequence (O96013 321-572 limits assumed): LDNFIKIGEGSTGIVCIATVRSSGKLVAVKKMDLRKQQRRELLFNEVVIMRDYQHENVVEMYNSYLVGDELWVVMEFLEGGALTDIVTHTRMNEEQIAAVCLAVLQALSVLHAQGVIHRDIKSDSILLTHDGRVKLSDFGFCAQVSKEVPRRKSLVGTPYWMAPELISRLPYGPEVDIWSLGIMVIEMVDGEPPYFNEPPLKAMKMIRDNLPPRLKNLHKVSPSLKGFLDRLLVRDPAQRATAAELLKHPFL
assay.method.text: PAK4 cellular assay: sandwich ELISA of PAK4-dependent phosphorylation of GEF-H1b in TR-293-KDG cells
recorded.conditions: 3-hour exposure
pEC50: −log10 of the molar value.
Lab note: anything with pEC50 at or over 7 counts as YES; the rest go in NO.

molecule | assigned.class
CN(C)C[C@@H](OC(=O)N1Cc2c(NC(=O)C3CCCCC3)n[nH]c2C1(C)C)c1ccccc1 | YES
Cc1cc(C(=O)Nc2n[nH]c3c2CN(C(=O)O[C@H](CN(C)C)c2ccccc2)C3(C)C)no1 | YES
CC1(C)c2[nH]nc(NC(=O)c3cccs3)c2CN1C(=O)N[C@H](CO)c1ccccc1 | NO
CN(C)C[C@@H](NC(=O)N1Cc2c(NC(=O)c3ccc(F)cc3)n[nH]c2C1(C)C)c1ccccc1 | YES
CN(C)C[C@@H](OC(=O)N1Cc2c(NC(=O)C3CCC3)n[nH]c2C1(C)C)c1ccccc1 | YES
CN(Cc1ccccc1)C[C@@H](OC(=O)N1Cc2c(NC(=O)c3ccc(F)cc3)n[nH]c2C1(C)C)c1ccccc1 | NO
CN(C)C[C@@H](OC(=O)N1Cc2c(NC(=O)Cc3ccc(F)cc3)n[nH]c2C1(C)C)c1ccccn1 | NO
COC(C)(C)C(=O)Nc1n[nH]c2c1CN(C(=O)O[C@H](CN(C)C)c1ccccc1)C2(C)C | YES
CC(C)C(=O)Nc1n[nH]c2c1CN(C(=O)O[C@H](CN(C)C)c1ccccc1)C2(C)C | YES
CN(C)C[C@@H](OC(=O)N1Cc2c(NC(=O)c3ccc(C(F)(F)F)cc3)n[nH]c2C1(C)C)c1ccccc1 | NO
CN(C)C[C@@H](OC(=O)N1Cc2c(NC(=O)C3CCOC3)n[nH]c2C1(C)C)c1ccccc1 (some centres unmarked) | YES
CN(C)C[C@@H](OC(=O)N1Cc2c(NC(=O)C3CCCCO3)n[nH]c2C1(C)C)c1ccccc1 (some centres unmarked) | YES
CN(C)C[C@@H](NC(=O)N1Cc2c(NC(=O)c3ccccc3F)n[nH]c2C1(C)C)c1ccccc1 | YES
CC1(C)c2[nH]nc(NC(=O)[C@@H]3C[C@H]3c3ccccc3)c2CN1C(=O)N[C@@H]1C[C@H]1c1ccccc1 (relative stereo) | NO
COC[C@@H](CN(C)C)OC(=O)N1Cc2c(NC(=O)c3ccc(F)cc3)n[nH]c2C1(C)C | NO
CC(C)C[C@@H](CN(C)C)OC(=O)N1Cc2c(NC(=O)c3ccc(F)cc3)n[nH]c2C1(C)C | NO
CC(C)C[C@@H](CN(C)C)OC(=O)N1Cc2c(NC(=O)C3CCC3)n[nH]c2C1(C)C | YES
CN(C)CC(OC(=O)N1Cc2c(NC(=O)c3ccc(F)cc3)n[nH]c2C1(C)C)c1ccc(F)cc1 (centres unmarked) | YES
CN(C)C[C@H](Cc1ccccc1)OC(=O)N1Cc2c(NC(=O)c3ccccc3)n[nH]c2C1(C)C | NO
CC(=O)Nc1n[nH]c2c1CN(C(=O)N[C@H](CN(C)C)c1ccccc1)C2(C)C | NO
CN(C)CC(OC(=O)N1Cc2c(n[nH]c2NC(=O)C2CCCO2)C1(C)C)c1cccc(F)c1 (single isomer, unassigned) [Example 83B] | YES
CN(C)CC(OC(=O)N1Cc2c(NC(=O)c3ccc(F)cc3F)n[nH]c2C1(C)C)c1ccccc1 (centres unmarked) | YES
CN(C)C[C@@H](OC(=O)N1Cc2c(NC(=O)c3ccno3)n[nH]c2C1(C)C)c1ccccc1 | YES
CN(C)C[C@@H](OC(=O)N1Cc2c(NC(=O)C3CCCC3)n[nH]c2C1(C)C)c1ccccc1 | YES

====

target: PAK4 Kinase domain (PAK4 KD) (Homo sapiens, UniProt O96013)
Construct: Cloning, expression, and purification of recombinant PAK4 Kinase domain (PAK4 KD); His tag (pET28a(+)/pET24a(+), Ni-NTA purification) (N, cleaved yes); GST (pGST4.5, glutathione column) (N, cleaved yes)
Sequence (O96013 321-572 limits assumed): as above
assay.method.text: PAK4 kinase domain enzymatic assay (PK/LDH-coupled, Ki)
recorded.conditions: PAK4 Kinase Domain
Mark 1 only when Ki stays strictly below 100 nM. Values equal to the cut-off are -1.

compound | target | assigned.class
COc1ccc(C(=O)Nc2n[nH]c3c2CN(C(=O)N[C@@H]2C[C@H]2c2ccccc2)C3(C)C)cc1OC (relative stereo) [Example 109] | PAK4 Kinase domain (PAK4 KD) (Homo sapiens, UniProt O96013) | -1
CC(C)C[C@@H](CN(C)C)OC(=O)N1Cc2c(NC(=O)c3ccccc3)n[nH]c2C1(C)C [Example 35] | PAK4 Kinase domain (PAK4 KD) (Homo sapiens, UniProt O96013) | 1
CC(C)N(C)C[C@@H](OC(=O)N1Cc2c(NC(=O)c3ccc(F)cc3)n[nH]c2C1(C)C)c1ccccc1 [Example 40] | PAK4 Kinase domain (PAK4 KD) (Homo sapiens, UniProt O96013) | 1
CN(C)CC(OC(=O)N1Cc2c(NC(=O)c3ccc(F)cc3)n[nH]c2C1(C)C)c1ccccc1F (centres unmarked) [Example 38] | PAK4 Kinase domain (PAK4 KD) (Homo sapiens, UniProt O96013) | 1
COCC(=O)Nc1n[nH]c2c1CN(C(=O)O[C@H](CN(C)C)c1ccccc1)C2(C)C [Example 14] | PAK4 Kinase domain (PAK4 KD) (Homo sapiens, UniProt O96013) | -1
Cc1ccc(Cl)c(C(=O)Nc2n[nH]c3c2CN(C(=O)N[C@H](CN(C)C)c2ccccc2)C3(C)C)c1F [Example 110] | PAK4 Kinase domain (PAK4 KD) (Homo sapiens, UniProt O96013) | 1
CN(C)C[C@@H](OC(=O)N1Cc2c(NC(=O)c3ccccc3)n[nH]c2C1(C)C)C1CCCCC1 [Example 32] | PAK4 Kinase domain (PAK4 KD) (Homo sapiens, UniProt O96013) | 1
CN(C)C[C@@H](OC(=O)N1Cc2c(NC(=O)Cc3ccc(F)cc3)n[nH]c2C1(C)C)c1ccccn1 [Example 28] | PAK4 Kinase domain (PAK4 KD) (Homo sapiens, UniProt O96013) | 1
CC1(C)c2[nH]nc(NC(=O)c3ccccc3)c2CN1C(=O)NC1CCCN(Cc2ccccc2)C1 (centres unmarked) [Example 61] | PAK4 Kinase domain (PAK4 KD) (Homo sapiens, UniProt O96013) | -1
CN(C)C[C@@H](OC(=O)N1Cc2c(NC(=O)C3CCCO3)n[nH]c2C1(C)C)c1ccccc1 (some centres unmarked) [Example 15] | PAK4 Kinase domain (PAK4 KD) (Homo sapiens, UniProt O96013) | -1
CN(C)[C@@H](COC(=O)N1Cc2c(NC(=O)c3ccc(F)cc3)n[nH]c2C1(C)C)c1ccccc1 [Example 41] | PAK4 Kinase domain (PAK4 KD) (Homo sapiens, UniProt O96013) | -1
CN(C)CC(OC(=O)N1Cc2c(NC(=O)c3ccc(F)cc3F)n[nH]c2C1(C)C)c1ccccc1 (centres unmarked) [Example 23] | PAK4 Kinase domain (PAK4 KD) (Homo sapiens, UniProt O96013) | -1
CC1(C)c2[nH]nc(NC(=O)c3ccc(F)cc3)c2CN1C(=O)OC(CN1CCCC1)c1ccccc1 (centres unmarked) [Example 43] | PAK4 Kinase domain (PAK4 KD) (Homo sapiens, UniProt O96013) | 1
CN(C)C[C@@H](NC(=O)N1Cc2c(NC(=O)c3ccccn3)n[nH]c2C1(C)C)c1ccccc1 [Example 51] | PAK4 Kinase domain (PAK4 KD) (Homo sapiens, UniProt O96013) | -1
CN(C)CC(OC(=O)N1Cc2c(NC(=O)c3ccc(F)cc3)n[nH]c2C1(C)C)c1cccc2cccnc12 (centres unmarked) [Example 94] | PAK4 Kinase domain (PAK4 KD) (Homo sapiens, UniProt O96013) | -1
CN(C)C[C@@H](OC(=O)N1Cc2c(NC(=O)C3CCCCC3)n[nH]c2C1(C)C)c1ccccc1 [Example 13] | PAK4 Kinase domain (PAK4 KD) (Homo sapiens, UniProt O96013) | -1
CN(C)C[C@@H](NC(=O)N1Cc2c(NC(=O)c3ccc(C(F)(F)F)cc3)n[nH]c2C1(C)C)c1ccccc1 [Example 50] | PAK4 Kinase domain (PAK4 KD) (Homo sapiens, UniProt O96013) | 1
CC1(C)c2[nH]nc(NC(=O)c3ccccc3)c2CN1C(=O)NC(CN1CCCC1)c1ccccc1 (centres unmarked) [Example 60] | PAK4 Kinase domain (PAK4 KD) (Homo sapiens, UniProt O96013) | -1
CN(C)C[C@@H](OC(=O)N1Cc2c(NC(=O)C3CC3)n[nH]c2C1(C)C)c1ccccc1 [Example 9] | PAK4 Kinase domain (PAK4 KD) (Homo sapiens, UniProt O96013) | 1
CN(C)CC(OC(=O)N1Cc2c(n[nH]c2NC(=O)C2CCCO2)C1(C)C)c1cccc(F)c1 (single isomer, unassigned) [Example 83B] | PAK4 Kinase domain (PAK4 KD) (Homo sapiens, UniProt O96013) | 1
CN(C)C[C@@H](OC(=O)N1Cc2c(NC(=O)c3ccc(F)cc3F)n[nH]c2C1(C)C)C1CCCCC1 [Example 34] | PAK4 Kinase domain (PAK4 KD) (Homo sapiens, UniProt O96013) | -1
CN(C)C[C@@H](OC(=O)N1Cc2c(NC(=O)c3cccc4c3OCC4)n[nH]c2C1(C)C)c1ccccc1 [Example 81] | PAK4 Kinase domain (PAK4 KD) (Homo sapiens, UniProt O96013) | -1
COC(C)(C)C(=O)Nc1n[nH]c2c1CN(C(=O)O[C@H](CN(C)C)c1ccccc1)C2(C)C [Example 116] | PAK4 Kinase domain (PAK4 KD) (Homo sapiens, UniProt O96013) | -1
CN(C)CC(OC(=O)N1Cc2c(NC(=O)c3ccc(F)cc3)n[nH]c2C1(C)C)c1ccccc1 (centres unmarked) [Example 22] | PAK4 Kinase domain (PAK4 KD) (Homo sapiens, UniProt O96013) | 1
CN(C)CC(OC(=O)N1Cc2c(NC(=O)c3ccc(F)cc3)n[nH]c2C1(C)C)c1ccc(C#N)cc1 (centres unmarked) [Example 95] | PAK4 Kinase domain (PAK4 KD) (Homo sapiens, UniProt O96013) | -1
CO[C@H](C)C(=O)Nc1n[nH]c2c1CN(C(=O)O[C@H](CN(C)C)c1ccccc1)C2(C)C [Example 117] | PAK4 Kinase domain (PAK4 KD) (Homo sapiens, UniProt O96013) | -1
CN(C)CC(OC(=O)N1Cc2c(n[nH]c2NC(=O)C2CCCO2)C1(C)C)c1cccc(F)c1 (single isomer, unassigned) [Example 84A] | PAK4 Kinase domain (PAK4 KD) (Homo sapiens, UniProt O96013) | 1
